Data origin, for the record: patent US9945845B2

Tested on: HUVEC
TEST METHOD NOTES: HUVEC cell proliferation assay
Format: cell-based, human
ASSAY CONTEXT: Homo sapiens, HUVEC, 48 h, 10 μM in 0.1% DMSO, 48 hours; read-out: HUVEC proliferation
MEASURED QUANTITY: activity at 10 µM

INSERT INTO assay_data (compound, study_target, observed_value) VALUES
  ('COC(=O)Nc1nc2ccc(C(=O)c3cccs3)cc2[nH]1', 'HUVEC', '65 to 82%'),
  ('CC(C)COC(=O)OCN1C(=O)CN(CCN2CC(=O)N(COC(=O)OCC(C)C)C(=O)C2)CC1=O', 'HUVEC', '115 to 150%'),
  ('COc1cc(OC)c(C=C2C(O)=Nc3ccccc32)c(OC)c1', 'HUVEC', '85 to 115%');

Kindly state the measured activity at 10 µM obtained for CC(C)c1ccc2c(c1)c(SC(C)(C)C)c(CC(C)(C)C(=O)[O-])n2Cc1ccc(Cl)cc1.[Na+] [MK-886, sodium salt] with HUVEC.
115 to 150%

Kindly state the measured activity at 10 µM obtained for `Cc1cc(C)c(C=C2C(=O)Nc3ccccc32)[nH]1` with HUVEC.
85 to 115%

Kindly state the measured activity at 10 µM obtained for `Oc1cc(-c2ccccc2)nc2nc(Cl)ccc12` with HUVEC.
42 to 48%

Kindly state the measured activity at 10 µM obtained for CCOC(=O)C1=C(C)NC(C)=C(C(=O)OC)C1c1cccc(Cl)c1Cl (stereo not shown) with HUVEC.
85 to 115%

Kindly state the measured activity at 10 µM obtained for `Oc1c2ccccc2c2c3c(cccc13)N=N2` with HUVEC.
85 to 115%

Kindly state the measured activity at 10 µM obtained for `O=c1c(-c2ccc(O)cc2)coc2cc(O)cc(O)c12` with HUVEC.
85 to 115%

Kindly state the measured activity at 10 µM obtained for `N#CC(=Cc1ccc(O)c(O)c1)C(=O)Nc1ccccc1` with HUVEC.
85 to 115%

* * *

The following molecules are shown together with reported Lethality values.
Test system: Xenopus embryos
ASSAY CONTEXT: embryonic stage; — = no stage of lethality given

In the examples that follow, each entry is paired with its recorded Lethality.
INSERT INTO measurements (molecule, observed_value) VALUES
  ('COc1cc([C@@H]2c3cc4c(cc3[C@H](O)[C@H]3COC(=O)[C@H]23)OCO4)cc(OC)c1OC [Podophyllotoxin]', '41/42'),
  ('COc1cc2c(cc1O)CC[C@@H]1[C@@H]2CC[C@]2(C)[C@@H](O)CC[C@@H]12 [2-methoxyestradiol, 2-Hydroxyestradiol 2-methyl ether]', '33/34');

Turning to the following molecule.
Sample O=C1Nc2ccc(I)cc2C1=Cc1cc(Br)c(O)c(Br)c1 [GW5074] — what was its Lethality?
41/42

* * *

System: Xenopus embryos
ASSAY CONTEXT: embryonic stage; * = causing bulging eyes; # = bilateral, causing narrow-set eyes
The following compounds are shown together with reported Type of edema Periocular values.

INSERT INTO assay_data (compound, measured_quantity, observed_value) VALUES
  ('Nc1ccc2c3c(cccc13)C(=O)NC2=O [4-Amino-1,8-naphthalimide]', 'Type of edema Periocular', '41/42*');

Sample `CN(C)c1cc2c(Nc3ccc4c(cnn4Cc4ccccc4)c3)ncnc2cn1` — what was its Type of edema Periocular?
41/42

Sample `COc1cc2nc(N3CCN(C(=O)OCc4ccccc4)[C@H](C(=O)NC(C)(C)C)C3)nc(N)c2cc1OC` — what was its Type of edema Periocular?
41/42 #

Sample `Cc1nc2sccn2c(=O)c1CCN1CCC(=C(c2ccc(F)cc2)c2ccc(F)cc2)CC1` — what was its Type of edema Periocular?
41/42

* * *

Test system: Xenopus embryos
ASSAY CONTEXT: embryonic stage; — = no stage of lethality given
MEASURED QUANTITY: Lethality

INSERT INTO measurements (molecule, observed_value) VALUES
  ('C=C[C@@]1(C)CC(=O)[C@]2(O)[C@@]3(C)[C@@H](O)CCC(C)(C)[C@@H]3[C@H](O)[C@H](OC(C)=O)[C@@]2(C)O1 [Forskolin]', '41/42');

Turning to the following molecule.
Sample Cc1ccc(Cl)c(Nc2ccccc2C(=O)O)c1Cl.[Na] [Meclofenamic acid sodium] — what was its Lethality?
41/42

* * *

Tested on: blood vessel development and/or lymphangiogenesis in Xenopus embryos
Type: in vivo, Xenopus laevis
ASSAY CONTEXT: posterior cardinal vein, Xenopus embryos
Description: All chemicals were purchased from Sigma and 10-mM stock solutions in DMSO were prepared. Chemicals were used at a final concentration of 20 μM in screening medium to treat homozygous albino Xenopus embryos, which lack natural pigmentation. Chemical treatments of embryos (n=7 per well) was initiated at stage 31 (37 hpf) and terminated at stages 35/36 (50 hpf) or 42 (80 hpf). Embryos were fixed in 4% paraformaldehyde and processed for whole mount in situ hybridization. […]
MEASURED QUANTITY: PCV phenotype

In the examples that follow, each entry is paired with its recorded PCV phenotype.
INSERT INTO measurements (compound, study_target, observed_value) VALUES
  ('COc1cc2c(cc1O)CC[C@@H]1[C@@H]2CC[C@]2(C)[C@@H](O)CC[C@@H]12 [2-methoxyestradiol, 2-Hydroxyestradiol 2-methyl ether]', 'blood vessel development and/or lymphangiogenesis in Xenopus embryos', 'hypoplastic'),
  ('COc1cc(-c2ccc(=O)[nH]n2)ccc1OC(F)F [Zardaverine]', 'blood vessel development and/or lymphangiogenesis in Xenopus embryos', 'normal'),
  ('CCCCOC(=O)NS(=O)(=O)c1sc(CC(C)C)cc1-c1ccc(Cn2c(CC)nc3c(C)cc(C)nc32)cc1 [L-162,313]', 'blood vessel development and/or lymphangiogenesis in Xenopus embryos', 'normal'),
  ('CC(C)c1ccc2c(c1)c(SC(C)(C)C)c(CC(C)(C)C(=O)[O-])n2Cc1ccc(Cl)cc1.[Na+] [MK-886]', 'blood vessel development and/or lymphangiogenesis in Xenopus embryos', 'normal'),
  ('Cc1ccc(Cl)c(Nc2ccccc2C(=O)[O-])c1Cl.[Na+] [Meclotenamic acid sodium]', 'blood vessel development and/or lymphangiogenesis in Xenopus embryos', 'hypoplastic');

Kindly state the measured PCV phenotype obtained for `Oc1cc(-c2ccccc2)nc2nc(Cl)ccc12` with blood vessel development and/or lymphangiogenesis in Xenopus embryos.
normal

Kindly state the measured PCV phenotype obtained for Clc1ccc(C(c2ccc(Cl)cc2)n2cc[n+](CC(OCc3ccc(Cl)cc3Cl)c3ccc(Cl)cc3Cl)c2)cc1 (centres unmarked) [Calmidazolium chloride] with blood vessel development and/or lymphangiogenesis in Xenopus embryos.
normal

Kindly state the measured PCV phenotype obtained for `Nc1ncnc2c1c(-c1ccc(Oc3ccccc3)cc1)cn2C1CCCC1` with blood vessel development and/or lymphangiogenesis in Xenopus embryos.
normal

* * *

The following compounds are shown together with reported Lethality (NF) values.
System: Xenopus embryos
ASSAY CONTEXT: compounds causing edema; 20 μM, 1% DMSO, treatment from stage 31, scored to stage 47
Please respond with the number in NF and leave the unit unwritten.

In the examples that follow, each entry is paired with its recorded Lethality (NF).
INSERT INTO results (compound, study_target, measured_quantity, quantity_unit, observed_value) VALUES
  ('CCn1c(=O)c2[nH]c(-c3ccccc3)nc2n(CC)c1=O [1,3-Diethyl-8-phenylxanthine]', 'Xenopus embryos', 'Lethality (NF)', 'NF', 45),
  ('O=c1c(-c2ccc(O)cc2)coc2cc(O)cc(O)c12 [Genistein]', 'Xenopus embryos', 'Lethality (NF)', 'NF', 46),
  ('C/C(=C\c1ccc(C(=O)O)cc1)c1ccc2c(c1)C(C)(C)CCC2(C)C [TTNPB]', 'Xenopus embryos', 'Lethality (NF)', 'NF', 45);

Sample COc1cc2ncnc(Nc3cccc(Cl)c3)c2cc1OC [Tyrphostin AG 1478] — what was its Lethality (NF)?
46

Sample CN(C)c1cc2c(Nc3ccc4c(cnn4Cc4ccccc4)c3)ncnc2cn1 [GW2974] — what was its Lethality (NF)?
47

* * *

System: blood vessel development and/or lymphangiogenesis in Xenopus embryos
Assay type: in vivo, Xenopus laevis
ASSAY CONTEXT: anterior lymph heart, Xenopus embryos
Where a name gives a salt, the structure may show the parent alone.
MEASURED QUANTITY: ALH phenotype

In the examples that follow, each entry is paired with its recorded ALH phenotype.
INSERT INTO measurements (molecule, study_target, observed_value) VALUES
  ('CN(C)c1cc2c(Nc3ccc4c(cnn4Cc4ccccc4)c3)ncnc2cn1', 'blood vessel development and/or lymphangiogenesis in Xenopus embryos', 'stunted'),
  ('CCn1c(=O)c2[nH]c(-c3ccccc3)nc2n(CC)c1=O', 'blood vessel development and/or lymphangiogenesis in Xenopus embryos', 'stunted'),
  ('COC(=O)C1=C(C)NC(C)=C(C(=O)OCCN(C)Cc2ccccc2)C1c1cccc([N+](=O)[O-])c1 (stereo not drawn) [Nicardipine hydrochloride]', 'blood vessel development and/or lymphangiogenesis in Xenopus embryos', 'dysplastic'),
  ('Nc1ncnc2c1c(-c1ccc(Oc3ccccc3)cc1)cn2C1CCCC1', 'blood vessel development and/or lymphangiogenesis in Xenopus embryos', 'impaired'),
  ('CN(C)S(=O)(=O)c1ccc2c(c1)C(=Cc1cc3c([nH]1)CCCC3)C(=O)N2', 'blood vessel development and/or lymphangiogenesis in Xenopus embryos', 'dysplastic');

Sample Nc1ccc2c3c(cccc13)C(=O)NC2=O [4-Amino-1,8-naphthalimide] — what was its ALH phenotype?
stunted

Sample `O=c1c(-c2ccc(O)cc2)coc2cc(O)cc(O)c12` — what was its ALH phenotype?
impaired

Sample `CC(C)COC(=O)OCN1C(=O)CN(CCN2CC(=O)N(COC(=O)OCC(C)C)C(=O)C2)CC1=O` — what was its ALH phenotype?
dysplastic

Sample `CN(C)c1ccc(C=C2C(=O)Nc3ccccc32)cc1` — what was its ALH phenotype?
impaired

Sample `CC[C@H](C)C(=O)O[C@H]1CCC=C2C=C[C@H](C)[C@H](CC[C@@H]3C[C@@H](O)CC(=O)O3)[C@H]21` — what was its ALH phenotype?
impaired

Sample `Oc1cc(-c2ccccc2)nc2nc(Cl)ccc12` — what was its ALH phenotype?
dysplastic

Sample Cc1cc(N)c2ccccc2[n+]1CCCCCCCCCC[n+]1c(C)cc(N)c2ccccc21.[Cl-].[Cl-] [Dequalinium dichloride] — what was its ALH phenotype?
stunted
